Biological target: 5-HT uptake (Rattus norvegicus)
Construct: Synaptosomes from rat brain regions were freshly isolated; from tissue; host or cells: rat brain synaptosomes (medulla and pons)
Sequence (P31652 whole entry): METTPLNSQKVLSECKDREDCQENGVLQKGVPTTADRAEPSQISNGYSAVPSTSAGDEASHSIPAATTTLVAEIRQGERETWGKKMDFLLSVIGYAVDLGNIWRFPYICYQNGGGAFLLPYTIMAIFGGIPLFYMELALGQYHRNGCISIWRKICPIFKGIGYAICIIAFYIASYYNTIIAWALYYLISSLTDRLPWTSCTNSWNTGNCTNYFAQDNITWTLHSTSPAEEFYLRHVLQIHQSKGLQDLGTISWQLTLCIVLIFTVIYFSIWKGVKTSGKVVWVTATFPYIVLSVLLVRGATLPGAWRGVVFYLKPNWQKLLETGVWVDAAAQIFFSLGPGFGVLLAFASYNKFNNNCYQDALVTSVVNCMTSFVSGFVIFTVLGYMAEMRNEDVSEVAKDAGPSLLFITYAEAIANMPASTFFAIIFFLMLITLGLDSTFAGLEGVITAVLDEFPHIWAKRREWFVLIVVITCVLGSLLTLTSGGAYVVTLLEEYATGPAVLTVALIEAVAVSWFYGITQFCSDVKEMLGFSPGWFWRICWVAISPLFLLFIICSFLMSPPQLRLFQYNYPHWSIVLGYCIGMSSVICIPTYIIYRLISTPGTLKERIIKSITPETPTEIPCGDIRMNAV
Assay: 5-HT uptake inhibition in rat brain synaptosomes (medulla and pons)
Type: biochemical
Conditions: conc. 10 (unit not given), [3H]-5-HT, 5 minutes
Label 1 when Rat 5-HT uptake inhibition [%] conc. 10 is at or above 50%; otherwise label 0.

| MOLECULE | CLASSIFICATION |
| --- | --- |
| CCN(CC)Cc1ccc(C(c2ccccc2)N(C)C)n1C.Cl.Cl (stereo not shown) [Example 7] | 0 |
| Cc1ccccc1C(c1ccc(CN2CCCCC2)n1C)N(C)C.Cl.Cl (stereo not shown) [Example 3] | 0 |
| CCOC(=O)C(c1ccc(CN2CCCCC2)n1C)N1CCOCC1.Cl.Cl (stereo not shown) [Example 9] | 0 |
| CN(C)C(c1ccc(Br)cc1)c1ccc(CN2CCCCC2)n1C.Cl.Cl (stereo not shown) [Example 5] | 0 |
| COc1ccccc1C(c1ccc(CN2CCCCC2)n1C)N(C)C.Cl.Cl (stereo not shown) [Example 1] | 1 |
| CN(C)C(c1ccc(F)cc1)c1ccc(CN2CCOCC2)n1C.Cl.Cl (stereo not shown) [Example 6] | 1 |
| CN(C)C(c1ccccc1Br)c1ccc(CN2CCCCC2)n1C.Cl.Cl (stereo not shown) [Example 4] | 1 |
| CCOC(=O)C(c1ccc(CN(CC)CC)n1C)N1CCOCC1.Cl.Cl (stereo not shown) [Example 10] | 0 |
| CCOC(=O)C(c1ccc(CN2CCOCC2)n1C)N1CCCC1.Cl.Cl (stereo not shown) [Example 13] | 0 |
| COc1ccccc1C(c1ccc(CN2CCCC2)n1C)N(C)C.Cl.Cl (stereo not shown) [Example 2] | 1 |

---

Biological target: NA transporter (Rattus norvegicus)
Construct: Synaptosomes from rat brain regions were freshly isolated; from tissue; host or cells: rat brain synaptosomes (hypothalamus)
Sequence (Q63380 1-617): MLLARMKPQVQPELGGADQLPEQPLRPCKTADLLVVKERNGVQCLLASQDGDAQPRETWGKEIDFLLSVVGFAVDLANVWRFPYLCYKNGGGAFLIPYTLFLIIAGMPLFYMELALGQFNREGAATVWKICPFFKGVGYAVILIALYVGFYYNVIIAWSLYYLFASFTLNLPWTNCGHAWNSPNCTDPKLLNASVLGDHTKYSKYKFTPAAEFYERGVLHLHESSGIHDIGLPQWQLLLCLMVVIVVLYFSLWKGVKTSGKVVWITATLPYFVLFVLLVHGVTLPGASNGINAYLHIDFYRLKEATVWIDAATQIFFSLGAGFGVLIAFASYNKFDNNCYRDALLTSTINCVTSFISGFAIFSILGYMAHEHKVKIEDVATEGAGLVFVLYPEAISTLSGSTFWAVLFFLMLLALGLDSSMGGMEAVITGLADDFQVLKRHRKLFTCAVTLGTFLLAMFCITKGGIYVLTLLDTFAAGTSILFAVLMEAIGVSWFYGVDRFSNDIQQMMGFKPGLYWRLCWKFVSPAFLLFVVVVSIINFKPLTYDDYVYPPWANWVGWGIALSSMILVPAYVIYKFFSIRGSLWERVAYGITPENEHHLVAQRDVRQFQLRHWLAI
Experiment: Noradrenalin uptake inhibition in rat brain synaptosomes (hypothalamus)
Format: biochemical
Settings: conc. 10 (unit not given), [3H]-NA, 7.5 minutes
Description: c) Method for Determining Noradrenalin and the 5-HT Uptake Inhibition: […] The particular uptake was measured in a 96-well microtitre plate. […] The incubation time was 7.5 minutes for [^3H]-NA and 5 minutes for [^3H]-5-HT. […] After sealing with a top seal® (Packard) and establishment of equilibrium (around 5 hours), radioactivity was determined in a “Trilux 1450 Microbeta” (Wallac). […]
EXPERIMENTAL_READOUT: Rat noradrenalin uptake inhibition [%], conc. 10 (%)

| MOLECULE | SYSTEM_TESTED | UNIT_OF_MEASURE | OBSERVED |
| --- | --- | --- | --- |
| CCOC(=O)C(c1ccc(CN2CCCCC2)n1C)N1CCCCC1 (stereo not drawn) | NA transporter (Rattus norvegicus) | % | 33 |
| CN(C)C(c1ccc(F)cc1)c1ccc(CN2CCOCC2)n1C.Cl.Cl (stereo not drawn) | NA transporter (Rattus norvegicus) | % | 42 |
| COc1ccccc1C(c1ccc(CN2CCCC2)n1C)N(C)C.Cl.Cl (stereo not drawn) | NA transporter (Rattus norvegicus) | % | 65 |
| CN(C)C(c1ccc(Br)cc1)c1ccc(CN2CCCCC2)n1C.Cl.Cl (stereo not drawn) | NA transporter (Rattus norvegicus) | % | 91 |
| CCN(CC)Cc1ccc(C(c2ccccc2)N(C)C)n1C.Cl.Cl (stereo not drawn) | NA transporter (Rattus norvegicus) | % | 52 |
| COc1ccccc1C(c1ccc(CN2CCCCC2)n1C)N(C)C.Cl.Cl (stereo not drawn) | NA transporter (Rattus norvegicus) | % | 63 |

---

Biological target: human μ opiate receptor (Homo sapiens)
Sequence (P35372 whole entry): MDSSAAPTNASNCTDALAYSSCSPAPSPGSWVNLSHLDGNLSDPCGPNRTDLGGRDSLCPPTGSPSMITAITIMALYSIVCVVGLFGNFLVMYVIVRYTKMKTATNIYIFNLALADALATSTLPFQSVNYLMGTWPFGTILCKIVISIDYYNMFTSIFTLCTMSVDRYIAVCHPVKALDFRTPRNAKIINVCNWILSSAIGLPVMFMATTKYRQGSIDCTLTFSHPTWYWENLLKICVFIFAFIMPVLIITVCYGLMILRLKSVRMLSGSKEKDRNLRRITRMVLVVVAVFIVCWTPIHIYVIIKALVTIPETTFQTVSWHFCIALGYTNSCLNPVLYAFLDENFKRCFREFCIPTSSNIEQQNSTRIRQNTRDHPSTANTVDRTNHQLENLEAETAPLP
Assay: Human μ opiate receptor binding assay with [3H]-naloxone, CHO-K1 membrane preparation
Settings: read-out: Human ORm Nal inhibition [%]
EXPERIMENTAL_READOUT: inhibition at 1 µM (%)

| COMPOUND | EXPERIMENTAL_READOUT | OBSERVED |
| --- | --- | --- |
| CN(C)C(c1ccc(F)cc1)c1ccc(CN2CCOCC2)n1C.Cl.Cl (stereo not drawn) [Example 6, dihydrochloride] | inhibition at 1 µM | 21 |
| CCN(CC)Cc1ccc(C(c2ccccc2)N(C)C)n1C.Cl.Cl (stereo not drawn) [Example 7, dihydrochloride] | inhibition at 1 µM | 50 |
| CCOC(=O)C(c1ccc(CN(CC)CC)n1C)N1CCOCC1.Cl.Cl (stereo not drawn) [Example 10, dihydrochloride] | inhibition at 1 µM | 84 |
| CN(C)C(c1ccc(Br)cc1)c1ccc(CN2CCCCC2)n1C.Cl.Cl (stereo not drawn) [Example 5, dihydrochloride] | inhibition at 1 µM | 52 |
| COc1ccccc1C(c1ccc(CN2CCCC2)n1C)N(C)C.Cl.Cl (stereo not drawn) [Example 2, dihydrochloride] | inhibition at 1 µM | 25 |
| CCOC(=O)C(c1ccc(CN2CCCCC2)n1C)N1CCCCC1 (stereo not drawn) | inhibition at 1 µM | 69 |
